Data origin, for the record: patent US20140018375A1

Tested on: H441
Assay: Cell-Titer Glo cell viability assay, H441
Format: cell-based, human
Conditions: Homo sapiens, NCI-H441, 72 h, read-out: EC50 Half Maximal
METRIC: pEC50
Units for pEC50: none; it is -log10 of a concentration expressed in mol/L.

Task: Provide pEC50 value for the following compound: C#Cc1cccc(Nc2ncnc3cc(OCCOC)c(OCCOC)cc23)c1 [erlotinib]
Output: 5.70

----------
Test system: SW1573
Experiment: Cell-Titer Glo cell viability assay, SW1573
Assay type: cell-based, human
Conditions: Homo sapiens, SW1573, 72 h, read-out: EC50 Half Maximal
Procedure: On day 1, NSCLC cells were plated 3-5×10^4 cells/well in 96 well plates in their normal serum-containing media. […] Manufacturers instructions were followed for the assay. Experiments were conducted in triplicate to at least an n=3. Data was normalized as a percentage inhibition compared to DMSO only control wells and concentration-response analysis was performed using Prizm graphing software. The concentration response curves were analyzed in two ways.
METRIC: pEC50
Units for pEC50: none; it is -log10 of a concentration expressed in mol/L.

Task: Provide pEC50 value for the following compound: C#Cc1cccc(Nc2ncnc3cc(OCCOC)c(OCCOC)cc23)c1
Output: 5.05
